- Tested on: A375 multi-cell spheroids with HUVEC/MSC, viability
- protocol.details: Anticancer human tumor A375 cell line growth inhibition [GQUAD]; active = viability on the fitted dose curve at most 10% of control; inactive = the rest;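 note: spheroids exposed to compounds for seven days before readout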
- condition.context: second compound 1 µM; first compound 3.16 µM
Hi there, use one of these labels in your reply, thanks! 1 for active, -1 for inactive

Example cases with answers are listed next.
# compound, class.name
rows = [
    ("O=C(c1cc(Cc2n[nH]c(=O)c3ccccc23)ccc1F)N1CCN(C(=O)C2CC2)CC1 + Cc1[nH]c2ccc(F)cc2c1-c1nc2c3cccnc3c3ncccc3c2[nH]1", -1),
    ("CC(C)(O)C1CCC(Nc2ccc3ncc(-c4cccc(C(F)(F)F)c4)n3n2)CC1 (stereo not given) + CN(C)c1ccc(Nc2c3ccc(NC(=O)CCN4CCCC4)cc3nc3cc(NC(=O)CCN4CCCC4)ccc23)cc1", -1),
    ("CC(C)n1c(=O)n(C)c2cnc3cc(F)c(-c4ccc(OCCCN5CCCCC5)nc4)cc3c21 + Cc1cnc(CNC(=O)c2c(=O)c3ccc(N4CCCN(C)CC4)nc3n3c2sc2ccccc23)cn1", -1),
    ("CCCS(=O)(=O)Nc1ccc(F)c(C(=O)c2c[nH]c3ncc(-c4ccc(Cl)cc4)cc23)c1F + Cc1cnc(CNC(=O)c2c(=O)c3ccc(N4CCCN(C)CC4)nc3n3c2sc2ccccc23)cn1", 1),
    ("C=CC(=O)N1CCN(c2nc(=O)n(-c3c(C)ccnc3C(C)C)c3nc(-c4c(O)cccc4F)c(F)cc23)C(C)C1 (stereo not given) + CN(C)c1ccc(Nc2c3ccc(NC(=O)CCN4CCCC4)cc3nc3cc(NC(=O)CCN4CCCC4)ccc23)cc1", -1),
    ("CCCS(=O)(=O)Nc1ccc(F)c(C(=O)c2c[nH]c3ncc(-c4ccc(Cl)cc4)cc23)c1F + CN(C)c1ccc(Nc2c3ccc(NC(=O)CCN4CCCC4)cc3nc3cc(NC(=O)CCN4CCCC4)ccc23)cc1", 1),
    ("COc1cccc2c1C(=O)c1c(O)c3c(c(O)c1C2=O)CC(O)(C(=O)CO)CC3OC1CC(N)C(O)C(C)O1 (stereo not given) + Cc1cnc(CNC(=O)c2c(=O)c3ccc(N4CCCN(C)CC4)nc3n3c2sc2ccccc23)cn1", 1),
    ("O=c1[nH]cc(F)c(=O)[nH]1 + Cc1cnc(CNC(=O)c2c(=O)c3ccc(N4CCCN(C)CC4)nc3n3c2sc2ccccc23)cn1", -1),
    ("CC1COCCN1c1cc(C2(S(C)(=N)=O)CC2)nc(-c2ccnc3[nH]ccc23)n1 (stereo not given) + CN(C)c1ccc(Nc2c3ccc(NC(=O)CCN4CCCC4)cc3nc3cc(NC(=O)CCN4CCCC4)ccc23)cc1", -1),
    ("CCCS(=O)(=O)Nc1ccc(F)c(C(=O)c2c[nH]c3ncc(-c4ccc(Cl)cc4)cc23)c1F + Cc1[nH]c2ccc(F)cc2c1-c1nc2c3cccnc3c3ncccc3c2[nH]1", 1),
]

Ask: Test call for this compound, please: CC1COCCN1c1cc(C2(O)CC3CCC(C2)O3)c2cnn(-c3ccn[nH]3)c2n1 (stereo not given) + Cc1cnc(CNC(=O)c2c(=O)c3ccc(N4CCCN(C)CC4)nc3n3c2sc2ccccc23)cn1
Result: -1

Ask: Now consider Nc1ccn(C2OC(CO)C(O)C2(F)F)c(=O)n1 (stereo not given) + CN(C)c1ccc(Nc2c3ccc(NC(=O)CCN4CCCC4)cc3nc3cc(NC(=O)CCN4CCCC4)ccc23)cc1 and answer again.
Result: 1

Ask: Now consider COc1ncnc(C2CC2)c1-c1ncc2cnn(Cc3ccc(-c4nc(C(F)(F)F)cn4C(C)C)cc3)c2n1 + CN(C)c1ccc(Nc2c3ccc(NC(=O)CCN4CCCC4)cc3nc3cc(NC(=O)CCN4CCCC4)ccc23)cc1 and answer again.
Result: -1

###

- System: A375 multi-cell spheroids with HUVEC/MSC, viability
- protocol.details: Anticancer human tumor A375 cell line growth inhibition [GQUAD];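 note: spheroids exposed to compounds for seven days before readout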
- condition.context: second compound 0.316 µM; first compound 3.16 µM; stronger effect = lower value
- Excerpt: DNA G-quadruplex Stabilizer Agents in Combinations in Complex Spheroids A high-throughput screen of multi-cell type tumor spheroids was designed to identify active combinations of DNA G-quadruplex stabilizer agents and targeted small molecules. […] Compounds. […] If the clinical Cmax for an agent had not been determined, the highest concentration tested was 10 microM. […]
observed.property: viability, T/C (%)
Quick note: give the figure in %, leave out the unit.

Example cases with answers are listed next.
# compound, observed.property, value.reported
measured = [
    ("CC1COCCN1c1cc(C2(S(C)(=N)=O)CC2)nc(-c2ccnc3[nH]ccc23)n1 (stereo not drawn) + Cc1[nH]c2ccc(F)cc2c1-c1nc2c3cccnc3c3ncccc3c2[nH]1", "viability, T/C", 78.7),
    ("COc1cc(C2c3cc4c(cc3C(OC3OC5COC(C)OC5C(O)C3O)C3COC(=O)C23)OCO4)cc(OC)c1O (stereo not drawn) + Cc1cnc(CNC(=O)c2c(=O)c3ccc(N4CCCN(C)CC4)nc3n3c2sc2ccccc23)cn1", "viability, T/C", 22.1),
]

Kindly consider the entry below.
Ask: I'd like to know its viability, T/C. The compound in question is C#Cc1c(F)ccc2cc(O)cc(-c3ncc4c(N5CC6CCC(C5)N6)nc(OCC56CCCN5CC(F)C6)nc4c3F)c12 (stereo not drawn) + Cc1[nH]c2ccc(F)cc2c1-c1nc2c3cccnc3c3ncccc3c2[nH]1
Result: 101

###

- System: A375 multi-cell spheroids with HUVEC/MSC, viability
- protocol.details: Anticancer human tumor A375 cell line growth inhibition [GQUAD];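 note: spheroids exposed to compounds for seven days before readout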
- condition.context: second compound 1 µM; first compound 0.0316 µM; stronger effect = lower value
observed.property: viability, T/C

Example cases with answers are listed next.
# compound, observed.property, value.reported
records = [
    ("COc1cc(C2c3cc4c(cc3C(OC3OC5COC(C)OC5C(O)C3O)C3COC(=O)C23)OCO4)cc(OC)c1O (stereo not drawn) + Cc1[nH]c2ccc(F)cc2c1-c1nc2c3cccnc3c3ncccc3c2[nH]1", "viability, T/C", "109%"),
    ("O=c1[nH]cc(F)c(=O)[nH]1 + Cc1[nH]c2ccc(F)cc2c1-c1nc2c3cccnc3c3ncccc3c2[nH]1", "viability, T/C", "101%"),
]

Kindly consider the entry below.
Ask: I'd like to know its viability, T/C. The compound in question is CC(C)(O)C1CCC(Nc2ccc3ncc(-c4cccc(C(F)(F)F)c4)n3n2)CC1 (stereo not drawn) + Cc1[nH]c2ccc(F)cc2c1-c1nc2c3cccnc3c3ncccc3c2[nH]1
Result: 106%

###

Listed here: items and their measured viability, T/C.
- Tested on: A375 multi-cell spheroids with HUVEC/MSC, viability
- protocol.details: Anticancer human tumor A375 cell line growth inhibition [GQUAD];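 note: spheroids exposed to compounds for seven days before readout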
- condition.context: second compound 0.1 µM; first compound 0.1 µM; stronger effect = lower value

Example cases with answers are listed next.
# compound, value.reported
records = [
    ("CC(C)(O)C1CCC(Nc2ccc3ncc(-c4cccc(C(F)(F)F)c4)n3n2)CC1 (stereo not given) + CN(C)c1ccc(Nc2c3ccc(NC(=O)CCN4CCCC4)cc3nc3cc(NC(=O)CCN4CCCC4)ccc23)cc1", "92.6%"),
    ("C=CC(=O)N1CCN(c2nc(=O)n(-c3c(C)ccnc3C(C)C)c3nc(-c4c(O)cccc4F)c(F)cc23)C(C)C1 (stereo not given) + CN(C)c1ccc(Nc2c3ccc(NC(=O)CCN4CCCC4)cc3nc3cc(NC(=O)CCN4CCCC4)ccc23)cc1", "96.8%"),
    ("C=CC(=O)N1CCN(c2nc(=O)n(-c3c(C)ccnc3C(C)C)c3nc(-c4c(O)cccc4F)c(F)cc23)C(C)C1 (stereo not given) + Cc1[nH]c2ccc(F)cc2c1-c1nc2c3cccnc3c3ncccc3c2[nH]1", "97.8%"),
    ("CC(C)n1c(=O)n(C)c2cnc3cc(F)c(-c4ccc(OCCCN5CCCCC5)nc4)cc3c21 + Cc1cnc(CNC(=O)c2c(=O)c3ccc(N4CCCN(C)CC4)nc3n3c2sc2ccccc23)cn1", "64.2%"),
    ("COc1cccc2c1C(=O)c1c(O)c3c(c(O)c1C2=O)CC(O)(C(=O)CO)CC3OC1CC(N)C(O)C(C)O1 (stereo not given) + Cc1[nH]c2ccc(F)cc2c1-c1nc2c3cccnc3c3ncccc3c2[nH]1", "74.5%"),
    ("CC(=O)O[C@H]1C(=O)[C@@]2(C)[C@H]([C@H](OC(=O)c3ccccc3)[C@]3(O)C[C@H](OC(=O)[C@H](O)[C@@H](NC(=O)c4ccccc4)c4ccccc4)C(C)=C1C3(C)C)[C@]1(OC(C)=O)CO[C@@H]1C[C@@H]2O + Cc1cnc(CNC(=O)c2c(=O)c3ccc(N4CCCN(C)CC4)nc3n3c2sc2ccccc23)cn1", "24.9%"),
    ("CC(=O)O[C@H]1C(=O)[C@@]2(C)[C@H]([C@H](OC(=O)c3ccccc3)[C@]3(O)C[C@H](OC(=O)[C@H](O)[C@@H](NC(=O)c4ccccc4)c4ccccc4)C(C)=C1C3(C)C)[C@]1(OC(C)=O)CO[C@@H]1C[C@@H]2O + Cc1[nH]c2ccc(F)cc2c1-c1nc2c3cccnc3c3ncccc3c2[nH]1", "19.3%"),
    ("CCCS(=O)(=O)Nc1ccc(F)c(C(=O)c2c[nH]c3ncc(-c4ccc(Cl)cc4)cc23)c1F + CN(C)c1ccc(Nc2c3ccc(NC(=O)CCN4CCCC4)cc3nc3cc(NC(=O)CCN4CCCC4)ccc23)cc1", "14.1%"),
]

Ask: I'd like to know its viability, T/C. The compound in question is COc1ncnc(C2CC2)c1-c1ncc2cnn(Cc3ccc(-c4nc(C(F)(F)F)cn4C(C)C)cc3)c2n1 + Cc1[nH]c2ccc(F)cc2c1-c1nc2c3cccnc3c3ncccc3c2[nH]1
Result: 106%

Ask: Now consider CC1COCCN1c1cc(-c2ccnn2C)c2ccnc(-c3ccn[nH]3)c2n1 (stereo not given) + Cc1cnc(CNC(=O)c2c(=O)c3ccc(N4CCCN(C)CC4)nc3n3c2sc2ccccc23)cn1 and answer again.
Result: 37.5%
